# Test system: 648629-189-R-J1-PDC spheroids with HUVEC/MSC, viability
# Assay overview: Anticancer human tumor 648629-189-R-J1-PDC patient-derived bladder carcinoma cell line growth inhibition [PI3K]
# Particulars: second compound 1 µM; first compound 0.316 µM; active compounds read low
Quantity name: viability, T/C (%)
Provide the reading as a plain figure in %.

{"Compound": "Cn1ncc(Cl)c1-c1cc(C(=O)NC(CN)Cc2cccc(F)c2)sc1Cl (stereo not given) + CC(Nc1ncnc2nc[nH]c12)c1cc2cccc(Cl)c2c(=O)n1-c1ccccc1", "Units label": "%", "viability, T/C": 62.2}
{"Compound": "C=CC(=O)N1CCN(c2nc(=O)n(-c3c(C)ccnc3C(C)C)c3nc(-c4c(O)cccc4F)c(F)cc23)C(C)C1 (stereo not given) + CC(Nc1ccc2c(c1)OCCn1cc(N3C(=O)OCC3C(F)F)nc1-2)C(N)=O", "Units label": "%", "viability, T/C": 73.5}

Please look at the following compound next.
q: I'd like to know its viability, T/C. The compound in question is CC1(C)CCC(CN2CCN(c3ccc(C(=O)NS(=O)(=O)c4ccc(NCC5CCOCC5)c([N+](=O)[O-])c4)c(Oc4cnc5[nH]ccc5c4)c3)CC2)=C(c2ccc(Cl)cc2)C1 + CC(Nc1ccc2c(c1)OCCn1cc(N3C(=O)OCC3C(F)F)nc1-2)C(N)=O
a: 62.5

----------
# Test system: 648629-189-R-J1-PDC spheroids with HUVEC/MSC, viability
# Assay overview: Anticancer human tumor 648629-189-R-J1-PDC cell line growth inhibition [PI3K];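 further: spheroids exposed to agents for seven days before reading; percent of vehicle control luminescence where 100% = DMSO treated spheroids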
# Particulars: second compound 1 µM; first compound 10 µM; active compounds read low
viability, T/C values for the compounds below.

Past entries and their recorded results:
{"Compound": "CC(C)NCC(C(=O)N1CCN(c2ncnc3c2C(C)CC3O)CC1)c1ccc(Cl)cc1 (stereo not given) + COc1c(OCCCN2CCOCC2)ccc2c3n(c(=NC(=O)c4cnc(N)nc4)nc12)CCN3", "Measured on": "648629-189-R-J1-PDC spheroids with HUVEC/MSC, viability", "Quantity name": "viability, T/C", "Val": "0.84%"}
{"Compound": "CC1(C)CCC(CN2CCN(c3ccc(C(=O)NS(=O)(=O)c4ccc(NCC5CCOCC5)c([N+](=O)[O-])c4)c(Oc4cnc5[nH]ccc5c4)c3)CC2)=C(c2ccc(Cl)cc2)C1 + COc1c(OCCCN2CCOCC2)ccc2c3n(c(=NC(=O)c4cnc(N)nc4)nc12)CCN3", "Measured on": "648629-189-R-J1-PDC spheroids with HUVEC/MSC, viability", "Quantity name": "viability, T/C", "Val": "2.9%"}
{"Compound": "CC1(C)CCC(CN2CCN(c3ccc(C(=O)NS(=O)(=O)c4ccc(NCC5CCOCC5)c([N+](=O)[O-])c4)c(Oc4cnc5[nH]ccc5c4)c3)CC2)=C(c2ccc(Cl)cc2)C1 + CC(Nc1ccc2c(c1)OCCn1cc(N3C(=O)OCC3C(F)F)nc1-2)C(N)=O", "Measured on": "648629-189-R-J1-PDC spheroids with HUVEC/MSC, viability", "Quantity name": "viability, T/C", "Val": "8.61%"}
{"Compound": "CC1(C)CCC(Nc2ncc(C(F)(F)F)c(-c3c[nH]c4c(P(C)(C)=O)c(C#N)ccc34)n2)CN1 (stereo not given) + COc1c(OCCCN2CCOCC2)ccc2c3n(c(=NC(=O)c4cnc(N)nc4)nc12)CCN3", "Measured on": "648629-189-R-J1-PDC spheroids with HUVEC/MSC, viability", "Quantity name": "viability, T/C", "Val": "1.32%"}

Now for the compound whose viability, T/C we want.
q: Give the measured viability, T/C of Cn1nccc1Nc1nccc(-c2ccn(C(CO)c3ccc(Cl)c(F)c3)c(=O)c2)n1 (stereo not given) + CC(Nc1ncnc2nc[nH]c12)c1cc2cccc(Cl)c2c(=O)n1-c1ccccc1 .
a: 79.3%

----------
# Tested on: 648629-189-R-J1-PDC spheroids with HUVEC/MSC, viability
# Assay overview: Anticancer human tumor 648629-189-R-J1-PDC cell line growth inhibition [PI3K];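 further: spheroids exposed to agents for seven days before reading; percent of vehicle control luminescence where 100% = DMSO treated spheroids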
# Particulars: second compound 3.16 µM; first compound 0.0316 µM; active compounds read low
Quantity name: viability, T/C (%)
Write the answer as a number in %, unit excluded.

Past entries and their recorded results:
{"Compound": "CCN1CCN(Cc2ccc(Nc3ncc(F)c(-c4cc(F)c5nc(C)n(C(C)C)c5c4)n3)nc2)CC1 + Cc1nc(NC(=O)N2CCCC2C(N)=O)sc1-c1ccnc(C(C)(C)C(F)(F)F)c1", "Measured on": "648629-189-R-J1-PDC spheroids with HUVEC/MSC, viability", "viability, T/C / %": 53.8}
{"Compound": "C[C@@H](NC(=O)c1ncnc(N)c1Cl)c1ncc(C(=O)Nc2cc(C(F)(F)F)c(Cl)cn2)s1 + CC(Nc1ncnc2nc[nH]c12)c1cc2cccc(Cl)c2c(=O)n1-c1ccccc1", "Measured on": "648629-189-R-J1-PDC spheroids with HUVEC/MSC, viability", "viability, T/C / %": 112}
{"Compound": "CC(C)NCC(C(=O)N1CCN(c2ncnc3c2C(C)CC3O)CC1)c1ccc(Cl)cc1 (centres undefined) + CC(Nc1ncnc2nc[nH]c12)c1cc2cccc(Cl)c2c(=O)n1-c1ccccc1", "Measured on": "648629-189-R-J1-PDC spheroids with HUVEC/MSC, viability", "viability, T/C / %": 101}

Field: next compound
q: Entry under review: Cn1ncnc1[C@H]1c2n[nH]c(=O)c3cc(F)cc(c23)N[C@@H]1c1ccc(F)cc1 + Cc1nc(NC(=O)N2CCCC2C(N)=O)sc1-c1ccnc(C(C)(C)C(F)(F)F)c1 . Reported viability, T/C?
a: 49.7

----------
# System: 648629-189-R-J1-PDC spheroids with HUVEC/MSC, viability
# Assay overview: Anticancer human tumor 648629-189-R-J1-PDC cell line growth inhibition [PI3K];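 further: spheroids exposed to agents for seven days before reading; percent of vehicle control luminescence where 100% = DMSO treated spheroids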
# Particulars: second compound 0.00316 µM; first compound 0.001 µM; active compounds read low
Quantity name: viability, T/C (%)
Write the number in % without appending the unit.

// below: answered compounds
{"Compound": "CC(C)n1nc(-c2ccc3oc(N)nc3c2)c2c(N)ncnc21 + COc1c(OCCCN2CCOCC2)ccc2c3n(c(=NC(=O)c4cnc(N)nc4)nc12)CCN3", "Measured on": "648629-189-R-J1-PDC spheroids with HUVEC/MSC, viability", "Units label": "%", "viability, T/C": 79.5}
{"Compound": "CC(=O)c1c(C)c2cnc(Nc3ccc(N4CCNCC4)cn3)nc2n(C2CCCC2)c1=O + COc1c(OCCCN2CCOCC2)ccc2c3n(c(=NC(=O)c4cnc(N)nc4)nc12)CCN3", "Measured on": "648629-189-R-J1-PDC spheroids with HUVEC/MSC, viability", "Units label": "%", "viability, T/C": 98.1}
{"Compound": "Cn1ncnc1[C@H]1c2n[nH]c(=O)c3cc(F)cc(c23)N[C@@H]1c1ccc(F)cc1 + CC(Nc1ccc2c(c1)OCCn1cc(N3C(=O)OCC3C(F)F)nc1-2)C(N)=O", "Measured on": "648629-189-R-J1-PDC spheroids with HUVEC/MSC, viability", "Units label": "%", "viability, T/C": 110}
{"Compound": "Cn1ncnc1[C@H]1c2n[nH]c(=O)c3cc(F)cc(c23)N[C@@H]1c1ccc(F)cc1 + COc1c(OCCCN2CCOCC2)ccc2c3n(c(=NC(=O)c4cnc(N)nc4)nc12)CCN3", "Measured on": "648629-189-R-J1-PDC spheroids with HUVEC/MSC, viability", "Units label": "%", "viability, T/C": 92.2}
{"Compound": "CC(C)n1nc(-c2ccc3oc(N)nc3c2)c2c(N)ncnc21 + CC(Nc1ccc2c(c1)OCCn1cc(N3C(=O)OCC3C(F)F)nc1-2)C(N)=O", "Measured on": "648629-189-R-J1-PDC spheroids with HUVEC/MSC, viability", "Units label": "%", "viability, T/C": 100}

q: Which viability, T/C value is on record for CC(=O)c1c(C)c2cnc(Nc3ccc(N4CCNCC4)cn3)nc2n(C2CCCC2)c1=O + CC(Nc1ccc2c(c1)OCCn1cc(N3C(=O)OCC3C(F)F)nc1-2)C(N)=O ?
a: 103

----------
# Tested on: 648629-189-R-J1-PDC spheroids with HUVEC/MSC, viability
# Assay overview: Anticancer human tumor 648629-189-R-J1-PDC cell line growth inhibition [PI3K];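 further: spheroids exposed to agents for seven days before reading; percent of vehicle control luminescence where 100% = DMSO treated spheroids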
# Particulars: second compound 0.01 µM; first compound 1 µM; active compounds read low
Quantity name: viability, T/C (%)
The response must be a number in % with no trailing unit.

{"Compound": "CC(Cn1ccc(-c2ccc(C#N)c(Cl)c2)n1)NC(=O)c1cc(C(C)O)[nH]n1 (centres undefined) + CC(Nc1ccc2c(c1)OCCn1cc(N3C(=O)OCC3C(F)F)nc1-2)C(N)=O", "Val": 88.3}
{"Compound": "Cn1ncc(Cl)c1-c1cc(C(=O)NC(CN)Cc2cccc(F)c2)sc1Cl (centres undefined) + CC(Nc1ccc2c(c1)OCCn1cc(N3C(=O)OCC3C(F)F)nc1-2)C(N)=O", "Val": 32.6}
{"Compound": "Cn1ncc(Cl)c1-c1cc(C(=O)NC(CN)Cc2cccc(F)c2)sc1Cl (centres undefined) + COc1c(OCCCN2CCOCC2)ccc2c3n(c(=NC(=O)c4cnc(N)nc4)nc12)CCN3", "Val": 35.2}
{"Compound": "CC(C)NCC(C(=O)N1CCN(c2ncnc3c2C(C)CC3O)CC1)c1ccc(Cl)cc1 (centres undefined) + CC(Nc1ccc2c(c1)OCCn1cc(N3C(=O)OCC3C(F)F)nc1-2)C(N)=O", "Val": 50.2}
{"Compound": "C=CC(=O)N1CCN(c2nc(=O)n(-c3c(C)ccnc3C(C)C)c3nc(-c4c(O)cccc4F)c(F)cc23)C(C)C1 (centres undefined) + CC(Nc1ccc2c(c1)OCCn1cc(N3C(=O)OCC3C(F)F)nc1-2)C(N)=O", "Val": 114}

q: Quick one: viability, T/C for CCCS(=O)(=O)Nc1ccc(F)c(C(=O)c2c[nH]c3ncc(-c4ccc(Cl)cc4)cc23)c1F + CC(Nc1ccc2c(c1)OCCn1cc(N3C(=O)OCC3C(F)F)nc1-2)C(N)=O ?
a: 129

q: // lookup viability, T/C for C#Cc1c(F)ccc2cc(O)cc(-c3ncc4c(N5CC6CCC(C5)N6)nc(OCC56CCCN5CC(F)C6)nc4c3F)c12 (centres undefined) + CC(Nc1ccc2c(c1)OCCn1cc(N3C(=O)OCC3C(F)F)nc1-2)C(N)=O
a: 97

q: Please look up its viability, T/C: C#Cc1c(F)ccc2cc(O)cc(-c3ncc4c(N5CC6CCC(C5)N6)nc(OCC56CCCN5CC(F)C6)nc4c3F)c12 (centres undefined) + COc1c(OCCCN2CCOCC2)ccc2c3n(c(=NC(=O)c4cnc(N)nc4)nc12)CCN3
a: 113

q: Returns the measured viability, T/C for the input compound. Input: CC(C)NCC(C(=O)N1CCN(c2ncnc3c2C(C)CC3O)CC1)c1ccc(Cl)cc1 (centres undefined) + COc1c(OCCCN2CCOCC2)ccc2c3n(c(=NC(=O)c4cnc(N)nc4)nc12)CCN3
a: 54

q: Report viability, T/C for C[C@@H](NC(=O)c1ncnc(N)c1Cl)c1ncc(C(=O)Nc2cc(C(F)(F)F)c(Cl)cn2)s1 + CC(Nc1ccc2c(c1)OCCn1cc(N3C(=O)OCC3C(F)F)nc1-2)C(N)=O please.
a: 99.3

q: Please report the recorded viability, T/C for CC1(C)CCC(Nc2ncc(C(F)(F)F)c(-c3c[nH]c4c(P(C)(C)=O)c(C#N)ccc34)n2)CN1 (centres undefined) + CC(Nc1ccc2c(c1)OCCn1cc(N3C(=O)OCC3C(F)F)nc1-2)C(N)=O .
a: 31.1

q: What viability, T/C value was documented for this compound, CCN1CCN(Cc2ccc(Nc3ncc(F)c(-c4cc(F)c5nc(C)n(C(C)C)c5c4)n3)nc2)CC1 + COc1c(OCCCN2CCOCC2)ccc2c3n(c(=NC(=O)c4cnc(N)nc4)nc12)CCN3 ?
a: 106

q: Which measured viability, T/C value corresponds to CC(Cn1ccc(-c2ccc(C#N)c(Cl)c2)n1)NC(=O)c1cc(C(C)O)[nH]n1 (centres undefined) + COc1c(OCCCN2CCOCC2)ccc2c3n(c(=NC(=O)c4cnc(N)nc4)nc12)CCN3 ?
a: 92.7

q: Entry CCN1CCN(Cc2ccc(Nc3ncc(F)c(-c4cc(F)c5nc(C)n(C(C)C)c5c4)n3)nc2)CC1 + CC(Nc1ccc2c(c1)OCCn1cc(N3C(=O)OCC3C(F)F)nc1-2)C(N)=O : reported viability, T/C = ?
a: 107

q: Entry Cn1nccc1Nc1nccc(-c2ccn(C(CO)c3ccc(Cl)c(F)c3)c(=O)c2)n1 (centres undefined) + CC(Nc1ccc2c(c1)OCCn1cc(N3C(=O)OCC3C(F)F)nc1-2)C(N)=O has what viability, T/C?
a: 108

q: Find the recorded viability, T/C belonging to Cn1nccc1Nc1nccc(-c2ccn(C(CO)c3ccc(Cl)c(F)c3)c(=O)c2)n1 (centres undefined) + COc1c(OCCCN2CCOCC2)ccc2c3n(c(=NC(=O)c4cnc(N)nc4)nc12)CCN3 and report it.
a: 111

q: Which value of viability, T/C has been reported for CC1(C)CCC(Nc2ncc(C(F)(F)F)c(-c3c[nH]c4c(P(C)(C)=O)c(C#N)ccc34)n2)CN1 (centres undefined) + COc1c(OCCCN2CCOCC2)ccc2c3n(c(=NC(=O)c4cnc(N)nc4)nc12)CCN3 in the records?
a: 30.8

q: I would be grateful if you could share the reported viability, T/C for CC1(C)CCC(CN2CCN(c3ccc(C(=O)NS(=O)(=O)c4ccc(NCC5CCOCC5)c([N+](=O)[O-])c4)c(Oc4cnc5[nH]ccc5c4)c3)CC2)=C(c2ccc(Cl)cc2)C1 + CC(Nc1ccc2c(c1)OCCn1cc(N3C(=O)OCC3C(F)F)nc1-2)C(N)=O .
a: 86

q: Would you mind telling me what viability, T/C value was observed for C[C@@H](NC(=O)c1ncnc(N)c1Cl)c1ncc(C(=O)Nc2cc(C(F)(F)F)c(Cl)cn2)s1 + COc1c(OCCCN2CCOCC2)ccc2c3n(c(=NC(=O)c4cnc(N)nc4)nc12)CCN3 ?
a: 101

Values compiled from PubChem BioAssay AID1963974.
